- run-description: NCI Yeast Anticancer Drug Screen. Data for the sgs1 mgt1 strain (AID 161);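 also: 0% = growth of cultures given vehicle only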
- condition-details: S. cerevisiae sgs1 mgt1 strain, at 50.0 µM, hits give high values
This is part of a sample that, as a whole, favours compounds with a hit. Of some 79,000 tested, about 15% had one in any assay.
observable: growth inhibition (%)
Numbers only, in %.

# count of solved cases: 2
| molecule | growth inhibition (%) |
| --- | --- |
| COc1ccc2ncc(COC(=O)Nc3ccccc3)c(COC(=O)Nc3ccccc3)c2c1 | 11.8 |
| O=C(O)c1c2ccccc2nc2c1sc1ccccc12 | -3.05 |

Could I get growth inhibition for every one of these entries?
1. COC(=O)/C(C#N)=C/c1ccco1
2. CCCCCC/C=C/CCCCCCCC(=O)O
3. CNc1ccc(OC)cc1S(=O)(=O)c1ccccc1[N+](=O)[O-]
4. O=C(CSc1cc(Cl)c(Cl)cc1Cl)Nc1cccc(Cl)c1
5. NC(=O)NN/C=C(/C=Nc1ccccc1)[N+](=O)[O-]

1: -14.2; 2: 5.3; 3: 35.6; 4: 6.3; 5: 1.2

List growth inhibition for every entry below, keeping the order given.
1. COCCNc1ccc([N+](=O)[O-])cc1[N+](=O)[O-]
2. CCCCN(CCCC)C(=Nc1ccccc1)N(CCCC)CCCC
3. CCCCCCCCOCCS(=O)(=O)O
4. COC(=O)c1nc(N)[nH]c(=O)c1-c1ccc(Cl)cc1

[-3.75, -23.8, -0.15, -10.9]

I'm hoping you can list growth inhibition for every molecule here, please.
1. COC(=O)c1c2cccccc-2c(C(=O)OC)c1N
2. CC(CCC(=O)O)[C@H]1CCC2[C@@H]3C(=O)C[C@@H]4CC(O)CC[C@]4(C)C3CC[C@@]21C (stereo not given in full)
3. CCOC(=O)N(C)N=NCCCl

1. 28.8
2. 41.5
3. -5.05

For every item in the list below, what is its measured growth inhibition?
1. CC(C)CC(C#N)C(=O)O (stereo not given)
2. Oc1ccc2ccccc2c1/C=N\Sc1ccc(Cl)cc1

1. -5.15
2. 64.1

###

- run-description: NCI Yeast Anticancer Drug Screen. Data for the sgs1 mgt1 strain (AID 161);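 also: 0% = growth of cultures given vehicle only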
- condition-details: S. cerevisiae sgs1 mgt1 strain, at 50.0 µM, hits give high values
- Protocol: Growth inhibition of yeast strains with defined genetic alterations is measured as a screen for potential anti-cancer activity. Selected strains with alterations in DNA damage repair or cell cycle control were exposed to compounds and growth inhibition was measured relative to vehicle treated controls. The strain used in this assay is sgs1 mgt1
This is part of a sample that, as a whole, favours compounds with a hit. Of some 79,000 tested, about 15% had one in any assay.
observable: growth inhibition (%)
Numbers only, in %.

Solved cases (3 shown):
| compound | unit-of-measurement | assay-value |
| --- | --- | --- |
| O=C(COc1cc(Cl)c(Cl)cc1Cl)Oc1ccccc1 | % | 7.65 |
| O=C(Nc1ccccc1)N1CCC[C@@H]2CCCC[C@@H]21 | % | 0.7 |
| CC(C)(C)OC(=O)NC(Cc1ccccc1)C(=O)N[C@H]1c2ccsc2/C(=N/O)[C@H]1O (stereo partly specified) | % | 3.8 |

Record growth inhibition for all entries; do not skip any.
1. CC(C)(C)N1COCC(COc2ccc(Cl)cc2)OC1 (stereo unspecified)
2. Cc1nn(C(=O)CC(=O)Nc2ccc(Cl)cc2)c(C)c1N=Nc1ccccc1F
3. CSC12CC3C(=O)C=C[C@@H](O)[C@@H]3N1C(=O)C1(SC)CC3C(=O)C=C[C@@H](O)[C@@H]3N1C2=O (stereo partly specified)
4. O=C1NC(CN2CCCC(O)C2)C(=O)NC1CN1CCCC(O)C1 (stereo unspecified)

1. 4.95
2. -60.6
3. 85.1
4. 13.3

Hey, quick one: what's growth inhibition for each of these?
1. O=C1/C(=C\C=C\c2ccccc2)CCC/C1=C/C=C/c1ccccc1
2. O=C1OCCC1n1cc(F)c(=O)[nH]c1=O (stereo unspecified)
3. FC(F)(F)c1cccc(NC(=S)SCc2ccc(Cl)c(Cl)c2)c1
4. Cc1cc(C)nc(N)c1

1. 5.7
2. -3.45
3. 98.8
4. -0.4

Taken from PubChem BioAssay (NCI).
